- assayed.target: recombinant soluble homotrimeric HA, A/South Carolina/1/18 H1N1 (Influenza A virus A/South Carolina/1/18 (H1N1))
- procedure.summary: microarray, transfection SN IgG, trimeric HA
- measurement.parameters: remark: other sources report otherwise
So I've got a bunch of binders here, and I need their Trimeric HA Binding: RLU values.
Your answer is read as RLU, so omit the unit and give the number.

Ask | Request the reported Trimeric HA Binding: RLU associated with TCN-550 (5096_F06) (antibody, V domains shown) VH: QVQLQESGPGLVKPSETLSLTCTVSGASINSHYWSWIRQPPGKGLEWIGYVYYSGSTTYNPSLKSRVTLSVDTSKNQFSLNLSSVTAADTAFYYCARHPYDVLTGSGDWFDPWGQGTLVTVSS VL: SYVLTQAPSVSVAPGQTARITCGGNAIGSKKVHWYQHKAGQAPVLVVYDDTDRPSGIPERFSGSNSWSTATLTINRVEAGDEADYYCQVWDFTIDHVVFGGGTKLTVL
Reply | 1010

Ask | What do you have for TCN-547 (5092_F11) (antibody, V domains shown) VH: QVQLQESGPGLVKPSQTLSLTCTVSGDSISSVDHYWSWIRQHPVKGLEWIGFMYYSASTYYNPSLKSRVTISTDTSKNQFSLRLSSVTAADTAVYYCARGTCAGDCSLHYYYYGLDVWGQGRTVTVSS VL: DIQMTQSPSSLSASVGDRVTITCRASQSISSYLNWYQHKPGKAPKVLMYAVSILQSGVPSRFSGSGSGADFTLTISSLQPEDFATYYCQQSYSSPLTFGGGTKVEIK ?
Reply | 2020

Ask | Can you check TCN-553 (5261_C18) (antibody, V domains shown) VH: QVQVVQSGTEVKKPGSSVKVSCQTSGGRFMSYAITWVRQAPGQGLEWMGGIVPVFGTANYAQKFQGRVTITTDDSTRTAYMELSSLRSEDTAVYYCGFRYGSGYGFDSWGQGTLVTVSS VL: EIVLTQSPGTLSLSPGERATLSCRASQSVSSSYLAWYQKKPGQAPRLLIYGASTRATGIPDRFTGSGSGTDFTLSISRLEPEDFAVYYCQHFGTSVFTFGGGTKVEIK next?
Reply | 41300

Ask | Same question, TCN-555 (5246_L16) (antibody, V domains shown) VH: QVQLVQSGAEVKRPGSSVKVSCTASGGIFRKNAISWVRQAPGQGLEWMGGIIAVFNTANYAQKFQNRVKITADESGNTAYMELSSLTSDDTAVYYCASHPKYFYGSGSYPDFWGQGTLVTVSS VL: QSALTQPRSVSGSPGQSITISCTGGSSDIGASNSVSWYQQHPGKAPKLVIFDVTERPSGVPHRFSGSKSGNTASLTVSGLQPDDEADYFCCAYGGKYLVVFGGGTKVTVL this time
Reply | 48000

Reference for the values: patent US20150086555A1
